Conditions: rat; liver microsomes; pH 7.4; 15.0 min; 1.0 µM
recorded metric: half-life (min)
The figure you give is taken to be in min; do not add the unit.

Worked cases, half-life given:
CCOC(=O)CCNc1cc(N2CCc3ccccc3CC2)nc(-c2cccnc2)n1    2.31
CC(C)(C)OC(=O)N[C@@H](Cc1ccc(OS(=O)(=O)c2cccc3cnccc23)cc1)C(=O)N1CCCN(C(=O)OC(C)(C)C)CC1    2

-- ask # return recorded half-life for entry O=C1CCCC2=C1C1(CCCC1)N=C(Nc1nc3cc(Br)ccc3o1)N2
-- reply 4.9

====

Conditions: rat; liver microsomes; pH 7.4; 15.0 min; 1.0 µM
So basically every entry gets a class from its half-life, ranges being bucket A (below 4 min), bucket B (4 min to below 20 min), bucket C (20 min or more)

Example entries begin here.
O=C(Nc1ccc(OC(F)(F)F)cc1)c1sccc1NCc1ccnc2ccccc12    bucket B
CN1C(=O)c2ccccc2[S@](=O)c2ccc(C(=O)NCc3cccnc3)cc21    bucket C
O=C(NCC1CCN(Cc2cccc(Cl)c2)CC1)Nc1ccc(F)c(Cl)c1    bucket C
O=C(O)c1ccc(Nc2nc(-c3cc4ccccc4oc3=O)cs2)cc1O    bucket C
CC1=C(C(=O)Nc2nncs2)C(c2[nH]ncc2Cl)N=C(Nc2nc3ccccc3o2)N1 (stereo unspecified)    bucket C
Cc1ccc(-c2cc(C(=O)O)c3ccccc3n2)cc1    bucket C
Cn1c(=O)c2[nH]c(=O)[nH]c2n(C)c1=O    bucket C
N#Cc1cc(NC(=O)Nc2nnc(-c3ccncc3)s2)ccc1-c1cn[nH]c1    bucket C
COc1cc(C2CC(=O)Nc3cc4c(cc32)OCCO4)cc(Br)c1OC (stereo unspecified)    bucket A
CC[S+](=O)([O-])Nc1ccccc1C(=O)Nc1nc(-c2ccccc2)cs1    bucket B

-- ask Entry CCOc1ccc(CCNC(=O)c2cc3sccc3n2C(C)C)cc1OCC belongs to which category?
-- reply bucket A

-- ask Entry Cc1cc(Oc2ccc(N)cn2)ccc1Cl belongs to which category?
-- reply bucket B

-- ask Entry Clc1ccccc1Nc1nc(-c2ccncc2)nc2ccccc12 belongs to which category?
-- reply bucket B

-- ask Entry COc1cc(-c2ccnc3c2c(C)nn3-c2ccc(C(F)(F)F)cc2)ccc1O belongs to which category?
-- reply bucket C

-- ask Entry Cc1ccc(S(=O)(=O)Nc2ccc(C)cc2C(=O)Nc2nc(-c3ccccc3)cs2)cc1 belongs to which category?
-- reply bucket A

-- ask Entry CC(C)NC(=O)N1C[C@@H]2C[C@H](C1)c1ccc(-c3cccc(C(F)(F)F)c3)c(=O)n1C2 belongs to which category?
-- reply bucket B

-- ask Entry O=S(=O)(Nc1nccs1)c1ccc(NCc2ccccc2O)cc1 belongs to which category?
-- reply bucket C

-- ask Entry CCOc1ccc(NC(=O)CC2C(=O)N(c3ccc(F)cc3)C(=O)N2CCc2sccc2C)cc1 (stereo unspecified) belongs to which category?
-- reply bucket A
